Data origin: patent US20240368163A1

System: MYB
Experiment: Splicing RT-qPCR assay, MYB mRNA canonical junction (CJ) and alternative junction (AJ)
Type: cell-based, human
Settings: Homo sapiens, 24 h, decrease in CJ mRNA; A673 or K562 cells, 24 hours treatment, RT-qPCR; read-out: MYB CJ IC50
Quick reference for IC50 among some compounds
endpoint-label: IC50

INSERT INTO assay_data (compound, system, endpoint_label, value_measured) VALUES
  ('c1n[nH]cc1-c1ccc(-c2ccc(N3CCC4(CC3)CNC4)nn2)c2[nH]ncc12 [Compound 238]', 'MYB', 'IC50', '> 10 µM'),
  ('c1nc2c(-c3cn[nH]c3)ccc(-c3ccc(N4CCC(NC5CC5)C4)nn3)c2s1 (stereo not shown) [Compound 337]', 'MYB', 'IC50', '> 10 µM'),
  ('CC(C)(C)NC1CCN(c2ccc(-c3ccc(-c4cn[nH]c4)c4cn[nH]c34)nn2)C1 (stereo not shown) [Compound 305]', 'MYB', 'IC50', '1 to 10 µM'),
  ('CN(c1ccc(-c2ccc(-c3cn[nH]c3)c3ncsc23)nn1)C1CC(C)(C)NC(C)(C)C1 [Compound 132]', 'MYB', 'IC50', '0.1 to 1 µM'),
  ('[2H]C([2H])([2H])N(c1ccc(-c2ccc(-c3cn[nH]c3)c3ncsc23)nn1)C1CC(C)(C)NC(C)(C)C1 [Compound 231]', 'MYB', 'IC50', '0.1 to 1 µM'),
  ('CN1C[C@@H]2[C@H](C1)[C@H]2N(C)c1ccc(-c2ccc(-c3cn[nH]c3)c3cn[nH]c23)nn1 [Compound 302]', 'MYB', 'IC50', '> 10 µM'),
  ('c1n[nH]cc1-c1ccc(-c2ccc(N3CCC(NC4CC4)C3)nn2)c2[nH]ncc12 (stereo not shown) [Compound 306]', 'MYB', 'IC50', '> 10 µM');

###

Quick reference for IC50 among some molecules
Test system: HTT
Experiment: Splicing RT-qPCR assay, HTT mRNA canonical junction (CJ) and alternative junction (AJ)
Assay type: cell-based, human
Conditions: Homo sapiens, RT-qPCR panel, canonical junction mRNA; compound concentration having 50% response in CJ decrease; read-out: HTT IC50 (decrease in CJ mRNA levels)
endpoint-label: IC50

INSERT INTO assay_data (molecule, endpoint_label, value_measured) VALUES
  ('CC1(C)CC(Oc2ccc(-c3ccc(-n4cccn4)c4[nH]ncc34)nn2)CC(C)(C)N1', 'IC50', '100 to 1000 nM'),
  ('CN1C[C@@H]2[C@H](C1)[C@H]2N(C)c1ccc(-c2ccc(-c3cn[nH]c3)c3ncsc23)nn1', 'IC50', '> 10000 nM'),
  ('c1n[nH]cc1-c1ccc(-c2ccc(N3CCCC4(CCNC4)C3)nn2)c2[nH]ncc12 (centres unmarked)', 'IC50', '> 10000 nM'),
  ('Cc1ncc(-c2ccc(-c3cnc(N(C)[C@@H]4C[C@H]5CCC[C@@H](C4)N5)nn3)c3scnc23)s1', 'IC50', '< 100 nM'),
  ('CN(c1ccc(-c2ccc(-c3cn[nH]c3)c3ncsc23)nn1)C1CCNCC1', 'IC50', '1000 to 10000 nM'),
  ('CC(C)(C)C1CN(c2ncc(-c3ccc(-n4cccn4)c4[nH]ncc34)nn2)CCN1 (centres unmarked)', 'IC50', '< 100 nM'),
  ('c1n[nH]cc1-c1ccc(-c2ccc(N3CC4(CCNCC4)C3)nn2)c2[nH]ncc12', 'IC50', '1000 to 10000 nM'),
  ('c1nc2c(-c3cn[nH]c3)ccc(-c3ccc(O[C@@H]4C[C@H]5CCC[C@@H](C4)N5)nn3)c2[nH]1', 'IC50', '100 to 1000 nM');

###

System: HTT
Experiment: Splicing RT-qPCR assay, HTT mRNA canonical junction (CJ) and alternative junction (AJ)
Assay type: cell-based, human
Conditions: Homo sapiens, RT-qPCR panel, canonical junction mRNA; compound concentration having 50% response in CJ decrease; read-out: HTT IC50 (decrease in CJ mRNA levels)
pIC50: −log10 of the molar value.
endpoint-label: pIC50

INSERT INTO results (compound, value_measured) VALUES
  ('c1nc2c(-c3cn[nH]c3)ccc(-c3ccc(NC4CCNCC4)nn3)c2s1', '< 5.00'),
  ('CN(c1ccc(-c2ccc(-c3cn[nH]c3)c3cn[nH]c23)nn1)[C@@H]1C[C@H]2CCC[C@@H](C1)N2', '> 7.00'),
  ('CN(c1ncc(-c2ccc(-c3cn[nH]c3)c3ncsc23)nn1)C1C[C@H]2CCC[C@H](C1)N2 (some centres unmarked)', '> 7.00'),
  ('CN1CCC2(CC1)CCN2c1ccc(-c2ccc(-c3cn[nH]c3)c3ncsc23)nn1', '< 5.00'),
  ('COc1cc(-c2ccc(-c3ccc(N(C)C4CC(C)(C)NC(C)(C)C4)nn3)c3ncsc23)cnn1', '6.00 to 7.00'),
  ('CC(C)(C)C1CN(c2ncc(-c3ccc(-c4cn[nH]c4)c4ncsc34)nn2)CCN1 (centres unmarked)', '6.00 to 7.00'),
  ('c1nc2c(-c3cn[nH]c3)ccc(-c3cnc(N4CCC(NC5CC5)C4)nn3)c2s1 (centres unmarked)', '5.00 to 6.00'),
  ('CN(c1ccc(-c2ccc(-c3ccn(C)c(=O)c3)c3ncsc23)nn1)C1CC(C)(C)NC(C)(C)C1', '5.00 to 6.00');

###

Test system: HTT
Experiment: Splicing RT-qPCR assay, HTT mRNA canonical junction (CJ) and alternative junction (AJ)
Type: cell-based, human
Conditions: Homo sapiens, RT-qPCR panel, canonical junction mRNA; compound concentration having 50% response in CJ decrease; read-out: HTT IC50 (decrease in CJ mRNA levels)
pIC50: −log10 of the molar value.
endpoint-label: pIC50

INSERT INTO assay_data (molecule, endpoint_label, value_measured) VALUES
  ('C[C@@H]1CN(c2ncc(-c3ccc(-n4cccn4)c4[nH]ncc34)nn2)C[C@H](C)N1', 'pIC50', '5.00 to 6.00'),
  ('c1nc2c(-c3cn[nH]c3)ccc(-c3ccc(O[C@@H]4C[C@H]5COC[C@@H](C4)N5)nn3)c2s1', 'pIC50', '> 7.00'),
  ('c1n[nH]cc1-c1ccc(-c2ccc(N[C@@H]3C[C@H]4CCC[C@@H](C3)N4)nn2)c2[nH]ncc12', 'pIC50', '6.00 to 7.00'),
  ('CN(c1ccc(-c2ccc(-c3ccn(C)c(=O)c3)c3scnc23)nn1)C1CC(C)(C)NC(C)(C)C1', 'pIC50', '5.00 to 6.00'),
  ('C[C@@H]1CN(c2ncc(-c3ccc(-c4cn[nH]c4)c4ncsc34)nn2)C[C@H](C)N1', 'pIC50', '< 5.00'),
  ('CN(c1ccc(-c2ccc(-n3cccn3)c3ncsc23)nn1)[C@@H]1C[C@H]2CC[C@@H](C1)N2', 'pIC50', '> 7.00'),
  ('CCN(c1ccc(-c2ccc(-c3cn[nH]c3)c3ncsc23)nn1)C1CC(C)(C)NC(C)(C)C1', 'pIC50', '5.00 to 6.00'),
  ('CN(c1ncc(-c2ccc(-c3cn[nH]c3)c3ncsc23)nn1)[C@@H]1CC2CCC[C@@H](C1)N2C', 'pIC50', '5.00 to 6.00'),
  ('CN(c1ccc(-c2ccc(-c3ccc(=O)n(C)c3)c3scnc23)nn1)C1CC(C)(C)NC(C)(C)C1', 'pIC50', '< 5.00'),
  ('c1nc2c(-c3cn[nH]c3)ccc(-c3ccc(N4CCC5(CCN5)C4)nn3)c2s1 (stereo not drawn)', 'pIC50', '< 5.00'),
  ('CC(C)(C)NC1CCN(c2ccc(-c3ccc(-n4cccn4)c4[nH]ncc34)nn2)C1 (stereo not drawn)', 'pIC50', '5.00 to 6.00'),
  ('[2H]C([2H])([2H])N(c1ccc(-c2ccc(-c3cn[nH]c3)c3cn[nH]c23)nn1)[C@@H]1C[C@H]2CCC[C@@H](C1)N2', 'pIC50', '> 7.00'),
  ('CN(c1ccc(-c2ccc(-c3cnn(C)c3)c3cn[nH]c23)nn1)C1CC(C)(C)NC(C)(C)C1', 'pIC50', '5.00 to 6.00'),
  ('c1nc2c(-c3cn[nH]c3)ccc(-c3ccc(NC4CNC4)nn3)c2s1', 'pIC50', '< 5.00'),
  ('[2H]C([2H])([2H])N(c1ccc(-c2ccc(-c3cn[nH]c3)c3ncsc23)nn1)C1CC(C)(C)NC(C)(C)C1', 'pIC50', '6.00 to 7.00');

###

System: MYB
Assay: Splicing RT-qPCR assay, MYB mRNA canonical junction (CJ) and alternative junction (AJ)
Assay type: cell-based, human
Conditions: RT-qPCR panel, canonical junction mRNA; compound concentration having 50% response in CJ decrease; read-out: MYB IC50 (decrease in CJ mRNA levels)
pIC50: −log10 of the molar value.
endpoint-label: pIC50

INSERT INTO measurements (molecule, system, value_measured) VALUES
  ('CN(c1ccc(-c2cc(F)c(-c3cnn(C)c3)c3cn[nH]c23)nn1)C1CC(C)(C)NC(C)(C)C1 [Compound 326]', 'MYB', '6.00 to 7.00'),
  ('CC(C)(C)NC1CCN(c2ccc(-c3ccc(-c4cn[nH]c4)c4ncsc34)nn2)C1 (stereo not drawn) [Compound 345]', 'MYB', '5.00 to 6.00'),
  ('c1cnn(-c2ccc(-c3cnc(N4CCNC(C5CC5)C4)nn3)c3cn[nH]c23)c1 (stereo not drawn) [Compound 555]', 'MYB', '5.00 to 6.00'),
  ('CC(C)(C)NC1CCN(c2ccc(-c3ccc(-c4cn[nH]c4)c4ncsc34)nn2)C1 (stereo not drawn) [Compound 336]', 'MYB', '6.00 to 7.00'),
  ('CN(c1ccc(-c2ccc(-c3cn[nH]c3)c3ncsc23)nn1)[C@H]1C[C@H]2COC[C@@H](C1)N2 [Compound 356]', 'MYB', '6.00 to 7.00'),
  ('c1nc2c(-c3cn[nH]c3)ccc(-c3cnc(N4CCN[C@H](C5CC5)C4)nn3)c2s1 [Compound 553]', 'MYB', '5.00 to 6.00'),
  ('c1cnn(-c2ccc(-c3cnc(N4CCC(NC5CC5)C4)nn3)c3cn[nH]c23)c1 (stereo not drawn) [Compound 548]', 'MYB', '< 5.00'),
  ('FC1(F)CC2CC(Oc3ccc(-c4ccc(-c5cn[nH]c5)c5cn[nH]c45)nn3)CC1N2 (stereo not drawn) [Compound 374]', 'MYB', '< 5.00'),
  ('CNC1CCN(c2ncc(-c3ccc(-n4cccn4)c4[nH]ncc34)nn2)C1 (stereo not drawn) [Compound 549]', 'MYB', '5.00 to 6.00');
